assay: NCI Yeast Anticancer Drug Screen. Data for the rad50 strain (AID 155);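 note: 0% = growth of vehicle-only cultures of the same strain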; conditions: S. cerevisiae rad50 strain growth inhibition; at 5.0 µM (retest, dose inferred, filed as 0.5)
This is part of a sample that, as a whole, favours compounds with a hit. Of some 79,000 tested, about 15% had one in any assay. Calls of active or inactive are those of the source. Cut-off read from the data, not from the text of the source: active = growth inhibition above about 70%; inactive = the rest.
Classes used: class 1 for active, class 0 for inactive

| compound | classLabel |
| --- | --- |
| CCOC(=O)CC1C(=O)N(c2nc(-c3ccc(Br)cc3)cs2)N=C1C (stereo not drawn) | class 0 |
| CSC(=S)n1nc(-c2ccccc2)c(N=Nc2ccccc2[N+](=O)[O-])c1C | class 0 |
| COc1ccc(-c2[nH]c(-c3ccc(OC)cc3)c(-c3ccccn3)c2-c2ccccn2)cc1 | class 0 |
| CC(=O)OCc1cc2c(s1)C(=O)c1sccc1C2=O | class 0 |
| O=[N+]([O-])c1ccc(-c2nc3c(o2)CCC3)cc1 | class 0 |
| CN(C)CC(CN(C)C)C(=O)c1ccc(Oc2ccc(Cl)cc2)cc1 | class 1 |
| NSc1ccc(N)s1 | class 0 |
| Nc1ccc(O)c2c1C(=O)c1ccccc1C2O (stereo not drawn) | class 0 |
| CC1=CC(=O)C(O)=C/C1=C\C=C\c1ccccc1 | class 0 |
| C=C1CC(C)(COc2ccc3c(C)c(Cl)c(=O)oc3c2)OC1=O (stereo not drawn) | class 0 |
| COc1ccc(-c2cc3ccccc3c(=O)n2Cc2ccccc2)cc1 | class 0 |
| CCCCCCCCCCCC[n+]1ccc(C#N)cc1 | class 0 |
| O=c1oc2ccccc2c(O)c1/C=N/C(=S)NCc1ccccc1 | class 0 |
| Cn1nc2c(c(Cl)c1=O)Nc1ccccc1O2 | class 0 |
| FC(F)(F)c1nc2cc(SSc3cc4nc(C(F)(F)F)[nH]c4cc3Cl)c(Cl)cc2[nH]1 | class 0 |
| CCCCCC(C)C1=NC(C)(C)CC(C)O1 (stereo not drawn) | class 0 |
| OC(Cc1cccnc1)(c1ccccc1)c1ccc(Cl)cc1 (stereo not drawn) | class 0 |
| COc1c(O)cc(C=O)cc1[N+](=O)[O-] | class 0 |
| CCOC(=O)N1CCN(C(=S)N/N=C(\C)c2ncccn2)CC1 | class 0 |
| CC(C)(C)OC(=O)Nc1cccc(Cl)c1 | class 0 |
| CC(=O)NC1=C(Cl)C(=O)c2ccccc2C1=O | class 1 |
| O=C1C2=C(C(=O)c3cnccc31)C1C=CC2CC1 (stereo not drawn) | class 0 |
| CCN(CC)CCOc1c(I)cc(I)cc1I | class 0 |
| Nc1ncnc2c1ncn2CC(O)CN(CCO)CCO (stereo not drawn) (tested in a mixture with another compound) | class 0 |
| N#CC12CC3=C(N=C1NC1=C(CCc4ccccc41)C2)c1ccccc1CC3 (stereo not drawn) | class 0 |
| COc1ccc(N=N/N=c2\sc3cc(Cl)ccc3n2C)cc1 | class 0 |
| Cc1ccc([N+](=O)[O-])cc1Cl | class 0 |
| CCCCCCC(=O)Nc1ccc(OC(=O)CCCCCC)c(=O)cc1 | class 0 |
| CCN1CCNc2c3cc(OC)ccc3nc3c([N+](=O)[O-])ccc1c23 | class 0 |
| Cc1ccccc1C(=O)C(C)c1ccccc1 (stereo not drawn) | class 0 |
| CC1(C)c2ccccc2Cc2cc3ccccc3nc21 | class 0 |
| Nc1ccc(SCCCc2c(N)nc(N)nc2N)cc1 | class 0 |
| COc1ccc(CSC(=S)Nc2ccc(Cl)cc2Cl)cc1 | class 0 |
| CC(=O)Oc1c(-c2ccccc2)cc([N+](=O)[O-])cc1[N+](=O)[O-] | class 0 |
| O=C(CC(=O)c1ccccc1NC1=Cc2ccccc2C(=O)C1=O)C(=O)NC1=C(Cl)C(=O)c2ccccc2C1=O | class 0 |
| CC#CCCCCOC(=O)c1cc([N+](=O)[O-])cc([N+](=O)[O-])c1 | class 1 |
| NC(=O)NCCCCC1NC(=S)N(c2ccccc2)C1=O (stereo not drawn) | class 0 |
| O=C1C=C(Cl)C(=O)C2=C1CCCC2 | class 0 |
| CC(O)(CO)CC(C)(O)CO (stereo not drawn) | class 0 |
| S=C(Nc1ccc(Cl)c(Cl)c1)N1c2ccccc2-n2cccc2C1c1cccnc1 (stereo not drawn) | class 0 |
| CN(O)C(=S)c1ccccc1 | class 0 |
| CC12CCCCC1CCC(Br)C2=O (stereo not drawn) | class 0 |
| c1ccc(CN2CCC3(CC2)SSC2(CCN(Cc4ccccc4)CC2)SS3)cc1 | class 0 |
| C/C(=N\NC(=S)N1CCCC1)c1nc2ncccc2[nH]1 | class 0 |
| COC(=O)c1nnn(-c2cc(Cl)ccc2Cl)c1C(=O)c1ccc(Cl)c(Cl)c1 | class 0 |
| CN(C)c1ccc(/C=C(\C#N)c2cccc(Cl)c2)cc1 | class 0 |
| O=C1c2ccccc2C(=O)c2c1ccc(C(=O)O)c2-c1ccc2ccccc2c1 | class 0 |
| CC1(C)CC(=O)C(c2ccccc2[N+](=O)[O-])=C(O)C1 | class 0 |
